assay: in vivo; settings: female, BALB/c, mouse, iv, 20 pmol peptide, total radioactivity, uptake in liver
MEASUREMENT_NAME: tissue uptake at 1.5 h (%ID/g)

MOLECULE	MEASUREMENT_NAME	UNIT_ABBREV	QUANTITATIVE_READOUT
CCCC[C@@H](C(=O)N[C@@H](CC(=O)O)C(=O)N[C@@H](Cc1cccc2ccccc12)C(N)=O)N(C)C(=O)[C@H](Cc1c[nH]c2ccccc12)NC(=O)CNC(=O)[C@H](Cc1ccc(O)cc1)NC(=O)[C@H](C)NC(=O)[C@@H](CCC(=O)O)NC(=O)CN1CCN(CC(=O)O)CCN(CC(=O)O)CCN(CC(=O)O)CC1 [^68Ga-DOTA-MGS5, metal not drawn]	tissue uptake at 1.5 h	%ID/g	1
